# Test system: SW-620 colon
# MEASUREMENT PROTOCOL: NCI-60 one-dose screen, 48 h
# CONDITION DESCRIPTION: 10 µM unless noted
About 83,000 compounds went through this panel and 20% of them were active in at least one assay; those are over-represented in the sample as a whole. Calls of active or inactive are those of the source. How the source made its calls: active means growth percent below 10; inactive means the rest.
Assign a class; possible classes are active, inactive

Worked examples, 4 compounds total:
[[record]]
compound = "Nc1nc2ncc(CNc3ccc(C(=O)NC(CCC(=O)NC(CCC(=O)NC(CCC(=O)NC(CCC(=O)NC(CCC(=O)O)C(=O)O)C(=O)O)C(=O)O)C(=O)O)C(=O)O)cc3)nc2c(=O)[nH]1 (stereo not given)"
qualitative_label = "inactive"

[[record]]
compound = "O=C(/C=C/c1ccccc1)c1ccccc1O"
qualitative_label = "inactive"

[[record]]
compound = "NNc1ccc(Cl)cc1Cl"
qualitative_label = "inactive"

[[record]]
compound = "Clc1ccc(-n2ncc3c(NCCCN4CCOCC4)ncnc32)cc1"
qualitative_label = "inactive"


Please examine the following record next.
Recorded test call requested for O=C1C(=O)c2cc([N+](=O)[O-])ccc2-c2ccccc21
active

---

# System: UO-31 renal
# MEASUREMENT PROTOCOL: NCI-60 one-dose screen, 48 h (100 = growth as untreated, 0 = no growth, -100 = all killed)
# CONDITION DESCRIPTION: 10 µM unless noted
The panel holds about 83,000 compounds, 20% with a hit somewhere; the sample as a whole holds those more often.
# thresholds on growth define classes: range A (below 40%), range B (40% to below 70%), range C (70% or more)

Pick a category. Item: CCCCCCN(CCCCCC)CCCNc1nccc2ccccc12
range A

Pick a category. Item: Nc1ccc(C(=O)/C=C/c2ccccc2)cc1
range B

---

# Tested on: UO-31 renal
# MEASUREMENT PROTOCOL: NCI-60 one-dose screen, 48 h (100 = growth as untreated, 0 = no growth, -100 = all killed)
# CONDITION DESCRIPTION: 10 µM unless noted
# Procedure: Growth inhibition of the UO-31 human tumor cell line is measured as a screen for anti-cancer activity. Cells are grown in 96 well plates and exposed to the test compound for 48 hours. Compounds are tested at a single concentration, which is 10^-5 M for most compounds. The reported endpoint is percent growth (GI% or GIPRCNT), where numbers from 0 - 100% represent growth inhibition, and numbers from -100% - 0 represent cell death. For example, a value of 40 represents 60% growth inhibition. […]
Compounds without any hit were thinned out: in the full panel of roughly 83,000, 20% have a hit.
Provide the recorded growth for the entries that follow.
One number for each entry, in %.

Below, each entry is followed by its recorded growth result.
[[record]]
compound = "S=C1SCN(Cc2cccs2)CN1Cc1cccs1"
readout_unit = "%"
observed_result = 88.8

[[record]]
compound = "Cc1ccc2cccc(OC(=O)Nc3cccc(C(F)(F)F)c3)c2n1"
readout_unit = "%"
observed_result = 35.8

[[record]]
compound = "Nc1cc(-c2ccccc2)ccc1O"
readout_unit = "%"
observed_result = 93.4


Go through the list and state growth for each entry.
1. O=[N+]([O-])c1ccc(C(Br)c2ccc([N+](=O)[O-])cc2)cc1
2. Cc1cc2cccnc2c2ncccc12
3. O=[N+]([O-])c1ccc(Oc2ccccc2Cl)c([N+](=O)[O-])c1
4. OC(Cc1cc(CC(O)(C(F)(F)F)C(F)(F)F)nc(CC(O)(C(F)(F)F)C(F)(F)F)c1)(C(F)(F)F)C(F)(F)F

[47.4, 27, 81.9, 6.74]

Go through the list and state growth for each entry.
1. Oc1c(Cl)cc(Cl)cc1C(c1cc(Cl)cc(Cl)c1O)C(Cl)(Cl)Cl
2. N=C1C=C(N)C(=O)c2ccccc21
3. CC(C)c1ccc(C(=O)OC2CCCC2)cc1

1. -21.4
2. -86.3
3. 99.6

Go through the list and state growth for each entry.
1. Cc1cc(=O)oc2cc(O)cc(O)c12
2. CCCCCCCCCCCC[n+]1ccccc1 (tested in a mixture with another compound)
3. O=C1/C(=C\c2ccc([N+](=O)[O-])cc2)CS(=O)(=O)C/C1=C/c1ccc([N+](=O)[O-])cc1
4. CC1(C)N=c2cc3c(cc2N1c1ccc(Cl)cc1)=Nc1ccccc1N3c1ccc(Cl)cc1
5. O=Nc1ccc2ccccc2c1O
6. CC1=CC(=O)C=CC1(C)C(Cl)(Cl)Cl (configuration not stated)

1. 83.5
2. 1.25
3. -95.4
4. -37.1
5. 79.8
6. 92

Go through the list and state growth for each entry.
1. Cc1cccc2c(N)c3ccccc3nc12
2. CC[n+]1ccc(Nc2ccc(NC(=O)c3ccc(Nc4cc[n+](CC)c5ccc([N+](=O)[O-])cc45)cc3)cc2)cc1

-53.9
91.4

Go through the list and state growth for each entry.
1. CCCOS(=O)(=O)c1ccccc1
2. CCCCCCCCCCCCCCCC[N+]1(C)CCCC1c1cccnc1 (configuration not stated)
3. NNc1cccc([N+](=O)[O-])c1
4. CCN1/C(=C/C(C)=C/c2sc3ccc4ccccc4c3[n+]2CC)Sc2ccc3ccccc3c21
5. O=C1C(=O)c2cccnc2-c2ncccc21

1. 83.3
2. 91.3
3. 83.1
4. -89.8
5. -71.3

Go through the list and state growth for each entry.
1. CCOC(=O)c1cc(CC)sc1NC(=O)CC(C)=O
2. CC(C)(C)c1ccc(CCO)cc1
3. CN(C)CCSC1=Nc2ccc(Cl)cc2C(c2ccccc2Cl)N(C)C1 (configuration not stated)
4. Cc1ccc(/C=C2\CNC/C(=C\c3ccc(C)cc3)C2=O)cc1

1. 40.8
2. 78.8
3. 24.5
4. -81.2

---

Provide the recorded growth for the entries that follow.
# System: NCI-H460 lung
# MEASUREMENT PROTOCOL: NCI-60 one-dose screen, 48 h (100 = growth as untreated, 0 = no growth, -100 = all killed)
# CONDITION DESCRIPTION: 10 µM unless noted
About 83,000 compounds went through this panel and 20% of them were active in at least one assay; those are over-represented in the sample as a whole.
Answers are plain numbers, in %.

Go through the list and state growth for each entry.
1. CCOC(=O)c1cc(CC)sc1NC(=O)CC(C)=O
2. COC1CC(C)C(OC)c2cc(O)cc(c2O)NC(=O)/C(C)=C/C=C\C(C)C(OC(N)=O)/C(C)=C\C(C)C1OC (stereo unspecified)
3. CCOc1ccc(Nc2nc3c(s2)C(=O)c2ccccc2C3=O)cc1
4. C1=C(c2ccccc2)c2ccccc2C1
5. CC1(O)CCCCCC1
6. O=C1C=C(Cl)C(=O)c2ccccc21

[50.9, 9.42, 94.4, 99.5, 107, 101]

---

# Tested on: SW-620 colon
# MEASUREMENT PROTOCOL: NCI-60 one-dose screen, 48 h (100 = growth as untreated, 0 = no growth, -100 = all killed)
# CONDITION DESCRIPTION: 10 µM unless noted
Compounds without any hit were thinned out: in the full panel of roughly 83,000, 20% have a hit.
PROPERTY MEASURED: growth (%)
Answers are plain numbers, in %.

Below, each entry is followed by its recorded growth result.
[[record]]
molecule = "Nc1ccc(Oc2ccccc2)c(Cl)c1"
property_measured = "growth"
readout_unit = "%"
observed_result = 107

[[record]]
molecule = "Cc1cc(=O)oc2cc(O)cc(O)c12"
property_measured = "growth"
readout_unit = "%"
observed_result = 92

[[record]]
molecule = "O=C1C=CC(=O)N1c1cc(Cl)c(Cl)cc1Cl"
property_measured = "growth"
readout_unit = "%"
observed_result = 110

[[record]]
molecule = "CCC1C[N+]2=C(c3cc(OC)c(OC)cc3CC2)c2c1cc1n2CCc2cc(OC)c(OC)cc2-1 (stereo unspecified)"
property_measured = "growth"
readout_unit = "%"
observed_result = 48.8

[[record]]
molecule = "O=C(Cc1nc2cc(Cl)c(Cl)cc2nc1CC(=O)c1cccnc1)c1cccnc1"
property_measured = "growth"
readout_unit = "%"
observed_result = 90.3


# context switch: different molecule, same growth
Form field: reported growth of Oc1ccc(Cl)cc1Cc1cc(Cl)ccc1O
26.9

---

# Test system: CCRF-CEM leukemia
# MEASUREMENT PROTOCOL: NCI-60 one-dose screen, 48 h (100 = growth as untreated, 0 = no growth, -100 = all killed)
# CONDITION DESCRIPTION: 10 µM unless noted
The panel holds about 83,000 compounds, 20% with a hit somewhere; the sample as a whole holds those more often.
Provide the recorded growth for the entries that follow.
Numbers only, in %.

Below, each entry is followed by its recorded growth result.
[[record]]
record_smiles = "CCNc1nnnn1CC"
tested_target = "CCRF-CEM leukemia"
observed_result = 103

[[record]]
record_smiles = "S=C=Nc1ccc(N2CCOCC2)cc1"
tested_target = "CCRF-CEM leukemia"
observed_result = 80.6

[[record]]
record_smiles = "COc1ccc(/C=C2/C(=O)ON=C2C)cc1"
tested_target = "CCRF-CEM leukemia"
observed_result = 105

[[record]]
record_smiles = "COc1cc2c(c(OC)c1OC)-c1ccc(NCc3ccccc3)c(=O)cc1[C@@H](NC(C)=O)CC2"
tested_target = "CCRF-CEM leukemia"
observed_result = 10.1

[[record]]
record_smiles = "Oc1ccc(Nc2ccc3ccccc3c2)cc1"
tested_target = "CCRF-CEM leukemia"
observed_result = 49


Go through the list and state growth for each entry.
1. O=C1C=CC(=O)N1C1CCCCCCCCCCC1
2. O=C1Nc2ccc(Br)cc2C1=O

-11
93.5
